species: Homo sapiens; assay: Selectivity index, ratio of IC50 for inhibition of Grap94 (unkown origin) to IC50 for inhibition of TRAP1 (unknown origin)
endpoint_name: Ratio IC50

(A) Nc1nc(Cl)c2nc(S)n(Cc3ccc(Cl)c(Cl)c3)c2n1
(B) Nc1nc(Cl)c2nc(O)n(Cc3ccc(Cl)c(Cl)c3)c2n1
Consider A and B . Which of these has its Ratio IC50 at a higher number? Use the label to indicate which entry you chose.
A
(A: 29.6, B: 12.9)

(I) Nc1nc(Cl)c2c(n1)N(Cc1cc3c(cc1Br)OCO3)C(=O)C2
(II) Nc1nc(Cl)c2nc(N)n(Cc3ccc(Br)cc3F)c2n1
Consider I and II . Which of these has its Ratio IC50 at a higher number? Use the label to indicate which entry you chose.
II
(II: 7.2, I: 2.7)

* * *

organism: Homo sapiens; experiment: Selectivity index, ratio of IC50 for inhibition of HSP90alpha (unkown origin) to IC50 for inhibition of TRAP1 (unknown origin)
Each record here notes measured Ratio IC50.

[
  {
    "compound_string": "Nc1nc(Cl)c2nc(O)n(Cc3ccc(Cl)c(Cl)c3)c2n1",
    "Ratio IC50": "> 65.3"
  },
  {
    "compound_string": "Nc1nc(Cl)c2nc(S)n(Cc3ccc(C(F)(F)F)cc3)c2n1",
    "Ratio IC50": "> 12.1"
  },
  {
    "compound_string": "Nc1nc(Cl)c2c(n1)N(Cc1ccc(Cl)c(Cl)c1)C(=O)C2",
    "Ratio IC50": "> 61.3"
  },
  {
    "compound_string": "Nc1nc(Cl)c2c(n1)N(Cc1ccc3c(c1)OCO3)C(=O)C2",
    "Ratio IC50": 8.8
  }
]

In the following, a different molecule is considered.
Given the entry Nc1nc(Cl)c2c(n1)N(Cc1ccc(C(F)(F)F)cc1)C(=O)C2 , report its measured Ratio IC50.
> 4.8

* * *

organism: Homo sapiens; assay: Selectivity index, ratio of IC50 for inhibition of Grap94 (unkown origin) to IC50 for inhibition of TRAP1 (unknown origin)
endpoint_name: Ratio IC50

These recorded examples may help you get a feel for the data.
[
  {
    "compound_string": "Nc1nc(Cl)c2nc(S)n(Cc3cc4c(cc3Br)OCO4)c2n1",
    "Ratio IC50": 2.4
  },
  {
    "compound_string": "Nc1nc(Cl)c2c(n1)N(Cc1ccc(Cl)c(Cl)c1)C(=O)C2",
    "Ratio IC50": 21.2
  },
  {
    "compound_string": "Nc1nc(Cl)c2nc(O)n(Cc3cc(Cl)ccc3F)c2n1",
    "Ratio IC50": 13.9
  },
  {
    "compound_string": "Nc1nc(Cl)c2nc(O)n(Cc3ccc(Br)cc3F)c2n1",
    "Ratio IC50": 8.5
  }
]

(A) Nc1nc(Cl)c2nc(O)n(Cc3cc(C(F)(F)F)ccc3Cl)c2n1
(B) Nc1nc(Cl)c2nc(N)n(Cc3cc4c(cc3Br)OCO4)c2n1
(C) Nc1nc(Cl)c2nc(O)n(Cc3cc4c(cc3Br)OCO4)c2n1
(D) COc1cc(F)c(Cn2c(S)nc3c(Cl)nc(N)nc32)c(F)c1
Would you mind ranking these compounds by ascending Ratio IC50? The response must list the labels following the requested ordering.
B, C, D, A

* * *

target: Heat shock protein HSP 90-alpha (Homo sapiens, UniProt P07900); experiment: Inhibition of PU-H71-FITC3 binding to recombinant N-terminal HSP90alpha (unknown origin) incubated for 2 hrs by fluorescence polarization assay
endpoint_name: IC50 (nM)

These recorded examples may help you get a feel for the data.
[
  {
    "compound_string": "Nc1nc(Cl)c2nc(O)n(Cc3ccc(Br)cc3F)c2n1",
    "endpoint_name": "IC50",
    "quantitative_result": 1130
  },
  {
    "compound_string": "Cc1ccc(CN2C(=O)Cc3c(Cl)nc(N)nc32)c(F)c1",
    "endpoint_name": "IC50",
    "quantitative_result": 1250
  },
  {
    "compound_string": "Nc1nc(Cl)c2nc(N)n(Cc3cc4c(cc3Br)OCO4)c2n1",
    "endpoint_name": "IC50",
    "quantitative_result": 778
  },
  {
    "compound_string": "Nc1nc(Cl)c2nc(O)n(Cc3cc(Cl)ccc3F)c2n1",
    "endpoint_name": "IC50",
    "quantitative_result": 4490
  },
  {
    "compound_string": "Nc1nc(Cl)c2c(n1)N(Cc1cc3c(cc1Br)OCO3)C(=O)C2",
    "endpoint_name": "IC50",
    "quantitative_result": 1100
  },
  {
    "compound_string": "Cc1ccc(Cn2c(O)nc3c(Cl)nc(N)nc32)c(F)c1",
    "endpoint_name": "IC50",
    "quantitative_result": 541
  }
]

(A) Nc1nc(Cl)c2nc(O)n(Cc3cc4c(cc3Br)OCO4)c2n1
(B) Nc1nc(Cl)c2nc(S)n(Cc3cc4c(cc3Br)OCO4)c2n1
// returns A or B , whichever has the lower IC50 Use the label to indicate which entry you chose.
A
(A: 394 nM, B: 1860 nM)

(I) Nc1nc(Cl)c2nc(O)n(Cc3cc(C(F)(F)F)ccc3Cl)c2n1
(II) COc1cccc(CN2C(=O)Cc3c(Cl)nc(N)nc32)c1OC
(III) COc1ccc(F)c(CN2C(=O)Cc3c(Cl)nc(N)nc32)c1F
Would you mind ranking these molecules by ascending IC50? The response must list the labels following the requested ordering.
III, II, I
(III: 893 nM, II: 1960 nM, I: 3310 nM)

(a) Nc1nc(Cl)c2c(n1)N(Cc1ccc3c(c1)OCO3)C(=O)C2
(b) Nc1nc(Cl)c2cnn(Cc3cc4c(cc3Br)OCO4)c2n1
// returns a or b , whichever has the lower IC50 Use the label to indicate which entry you chose.
b

* * *

system: HeLa; assay: Induction of apoptosis in human HeLa cells assessed as increase in cleaved caspase 3 protein expression at 25 uM after 12 hrs by Western blot analysis; format: functional, cell-based
Activity calls are given as the source filed them. The rule behind the calls is not given here.

[
  {
    "compound_string": "Nc1nc(Cl)c2nc(O)n(Cc3ccc(Cl)c(Cl)c3)c2n1",
    "tested_system": "HeLa",
    "Activity": "Active"
  },
  {
    "compound_string": "Cc1ccc(Cn2c(S)nc3c(Cl)nc(N)nc32)c(F)c1",
    "tested_system": "HeLa",
    "Activity": "Active"
  },
  {
    "compound_string": "Nc1nc(Cl)c2c(n1)N(Cc1ccc(Cl)c(Cl)c1)C(=O)C2",
    "tested_system": "HeLa",
    "Activity": "Active"
  },
  {
    "compound_string": "Nc1nc(Cl)c2nc(S)n(Cc3ccc(Cl)c(Cl)c3)c2n1",
    "tested_system": "HeLa",
    "Activity": "Active"
  }
]

* * *

biological target: Endoplasmin (Homo sapiens); test: Inhibition of Grp94 in human HeLa cells assessed as reduction in HER2 protein expression at 25 uM after 12 hrs by Western blotting analysis; assay type: cell-based
Sequence (P14625 whole entry): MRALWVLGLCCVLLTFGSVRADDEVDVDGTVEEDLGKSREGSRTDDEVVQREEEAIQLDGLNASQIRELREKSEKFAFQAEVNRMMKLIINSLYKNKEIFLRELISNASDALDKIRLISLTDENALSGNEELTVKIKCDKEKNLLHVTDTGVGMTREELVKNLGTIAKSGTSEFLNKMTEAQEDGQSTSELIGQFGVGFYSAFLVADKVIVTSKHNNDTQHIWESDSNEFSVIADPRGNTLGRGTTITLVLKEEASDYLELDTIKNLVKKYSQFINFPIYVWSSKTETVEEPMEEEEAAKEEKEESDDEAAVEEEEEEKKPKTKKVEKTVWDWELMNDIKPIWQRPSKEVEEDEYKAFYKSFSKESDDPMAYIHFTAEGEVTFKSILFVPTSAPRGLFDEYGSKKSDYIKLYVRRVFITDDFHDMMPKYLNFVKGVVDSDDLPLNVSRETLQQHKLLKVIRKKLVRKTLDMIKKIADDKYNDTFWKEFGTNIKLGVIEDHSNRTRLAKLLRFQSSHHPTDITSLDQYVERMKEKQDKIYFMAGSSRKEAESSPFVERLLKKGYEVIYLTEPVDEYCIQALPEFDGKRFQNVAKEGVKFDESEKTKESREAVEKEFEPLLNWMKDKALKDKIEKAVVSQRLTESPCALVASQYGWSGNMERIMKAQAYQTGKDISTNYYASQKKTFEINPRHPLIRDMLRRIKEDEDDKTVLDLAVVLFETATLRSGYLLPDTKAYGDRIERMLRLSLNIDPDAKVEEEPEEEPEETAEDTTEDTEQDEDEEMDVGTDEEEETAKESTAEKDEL
Activity calls are given as the source filed them. No cut-off for these calls is given here.
Outcome field: choose from active, inactive

[
  {
    "compound_string": "Cc1ccc(Cn2c(S)nc3c(Cl)nc(N)nc32)c(F)c1",
    "assigned_category": "inactive"
  }
]

Outcome logged for Nc1nc(Cl)c2c(n1)N(Cc1ccc(Cl)c(Cl)c1)C(=O)C2 in this assay:
inactive

Outcome logged for Nc1nc(Cl)c2nc(O)n(Cc3ccc(Cl)c(Cl)c3)c2n1 in this assay:
inactive

Outcome logged for Nc1nc(Cl)c2nc(S)n(Cc3ccc(Cl)c(Cl)c3)c2n1 in this assay:
inactive

Outcome logged for CC(C)NCCCn1c(Sc2cc3c(cc2I)OCO3)nc2c(N)ncnc21 in this assay:
active

* * *

target: Endoplasmin (Homo sapiens); assay: Inhibition of PU-H71-FITC3 binding to recombinant N-terminal Grp94 (unknown origin) incubated for 2 hrs by fluorescence polarization assay
pIC50: −log10 of the molar value.
endpoint_name: pIC50

These recorded examples may help you get a feel for the data.
[
  {
    "compound_string": "Nc1nc(Cl)c2nc(S)n(Cc3ccc(Cl)c(Cl)c3)c2n1",
    "tested_system": "Endoplasmin (Homo sapiens)",
    "pIC50": 5.73
  },
  {
    "compound_string": "Nc1nc(Cl)c2c(n1)N(Cc1ccc(Cl)c(Cl)c1)C(=O)C2",
    "tested_system": "Endoplasmin (Homo sapiens)",
    "pIC50": 5.76
  },
  {
    "compound_string": "Nc1nc(Cl)c2nc(N)n(Cc3cc4c(cc3Br)OCO4)c2n1",
    "tested_system": "Endoplasmin (Homo sapiens)",
    "pIC50": 5.97
  },
  {
    "compound_string": "Nc1nc(Cl)c2cnn(Cc3cc4c(cc3Br)OCO4)c2n1",
    "tested_system": "Endoplasmin (Homo sapiens)",
    "pIC50": 6.35
  },
  {
    "compound_string": "Nc1nc(Cl)c2nc(O)n(Cc3cc4c(cc3Br)OCO4)c2n1",
    "tested_system": "Endoplasmin (Homo sapiens)",
    "pIC50": 6.71
  }
]

(I) Nc1nc(Cl)c2nc(S)n(Cc3cc4c(cc3Br)OCO4)c2n1
(II) Nc1nc(Cl)c2nc(O)n(Cc3ccc(Br)cc3F)c2n1
// returns I or II , whichever has the lower pIC50 Use the label to indicate which entry you chose.
I
